Values from patent US20260116910A1

target: MRGPRX4 (Homo sapiens); experiment: MRGPRX4 activation, Fluo-8 Ca2+ FLIPR assay in HEK293T cells stably expressing MRGPRX4; format: cell-based; set-up: key: fluorescence change dF/F0; conditions: E3-9, Conc. (Log[M]) −4.5
Sequence (Q96LA9 whole entry): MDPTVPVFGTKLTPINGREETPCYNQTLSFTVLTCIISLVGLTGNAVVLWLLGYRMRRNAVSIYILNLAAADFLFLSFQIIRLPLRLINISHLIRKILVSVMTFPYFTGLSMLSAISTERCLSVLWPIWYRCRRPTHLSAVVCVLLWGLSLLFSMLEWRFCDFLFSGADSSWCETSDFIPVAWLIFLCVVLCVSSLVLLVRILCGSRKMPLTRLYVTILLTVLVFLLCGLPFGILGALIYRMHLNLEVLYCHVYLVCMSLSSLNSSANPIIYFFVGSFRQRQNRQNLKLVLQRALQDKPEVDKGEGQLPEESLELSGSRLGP
Some compounds, each annotated with its measured MRGPRX4 activation, Average.
Kindly provide the number alone.

Past entries and their recorded results:
- CC[C@H]1[C@@H](O)[C@@H]2[C@H](CC[C@]3(C)[C@@H]([C@H](C)CCNC(=O)NS(=O)(=O)c4ccc(N5CCCCC5)nc4)CC[C@@H]23)[C@@]2(C)CCCC[C@@H]12: 0.018
- CC[C@H]1[C@@H](O)[C@H]2[C@@H]3CC[C@](C)([C@H](C)CCNC(=O)NS(=O)(=O)C[C@]45CCC(CC4=O)C5(C)C)[C@H]3CC[C@@H]2[C@@]2(C)CC[C@H](F)C[C@@H]12: 0.016
- CC[C@H]1[C@@H](O)[C@@H]2[C@H](CC[C@]3(C)[C@@H]([C@H](C)CNC(=O)NS(=O)(=O)c4ccc5c(c4)CCC(C)(C)O5)CC[C@@H]23)[C@@]2(C)CCCC[C@@H]12: 0.012
- CC[C@H]1[C@@H](O)[C@@H]2[C@H](CC[C@]3(C)[C@@H]([C@H](C)CCNC(=O)NS(=O)(=O)c4cc(F)ccc4F)CC[C@@H]23)[C@@]2(C)CCC(F)(F)C[C@@H]12: 0.004

# input compound: "CC[C@H]1[C@@H](O)[C@@H]2[C@H](CC[C@]3(C)[C@@H]([C@H](C)CCC(=O)O)CC[C@@H]23)[C@@]2(C)CCC(F)(F)C[C@@H]12" ; wanted: its MRGPRX4 activation, Average
0.004

# input compound: "CC[C@H]1[C@@H](O)[C@@H]2[C@H](CC[C@]3(C)[C@@H]([C@H](C)COC(=O)NS(=O)(=O)c4ccc(N5CCCCC5)nc4)CC[C@@H]23)[C@@]2(C)CCCC[C@@H]12" ; wanted: its MRGPRX4 activation, Average
0.027

# input compound: "CC[C@H]1[C@@H](O)[C@@H]2[C@H](CC[C@]3(C)[C@@H]([C@H](C)CCNC(=O)C(=O)NS(=O)(=O)c4cccs4)CC[C@@H]23)[C@@]2(C)CCCC[C@@H]12" ; wanted: its MRGPRX4 activation, Average
0.018

# input compound: "CC[C@H]1[C@@H](O)[C@@H]2[C@H](CC[C@]3(C)[C@@H]([C@H](C)CCNC(=O)NS(=O)(=O)c4ccc(C(C)(C)CF)cc4)CC[C@@H]23)[C@@]2(C)CC[C@H](F)C[C@@H]12" ; wanted: its MRGPRX4 activation, Average
0.021

# input compound: "CC[C@H]1[C@@H](O)[C@@H]2[C@H](CC[C@]3(C)[C@@H]([C@H](C)CCNC(=O)NS(=O)(=O)c4cccs4)CC[C@@H]23)[C@@]2(C)CCCC[C@@H]12" ; wanted: its MRGPRX4 activation, Average
0.016

# input compound: "CCOC(=O)C(=O)NCC[C@@H](C)[C@H]1CC[C@H]2[C@@H]3[C@H](O)[C@H](CC)[C@@H]4CCCC[C@]4(C)[C@H]3CC[C@]12C" ; wanted: its MRGPRX4 activation, Average
0.016

# input compound: "CC[C@H]1[C@@H](O)[C@@H]2[C@H](CC[C@]3(C)[C@@H]([C@H](C)CCNC(=S)NS(=O)(=O)c4cccs4)CC[C@@H]23)[C@@]2(C)CCC(F)(F)C[C@@H]12" ; wanted: its MRGPRX4 activation, Average
0.010

# input compound: "CC[C@H]1[C@@H](O)[C@@H]2[C@H](CC[C@]3(C)[C@@H]([C@H](C)CCNC(=O)NS(=O)(=O)c4cc(F)cc(F)c4)CC[C@@H]23)[C@@]2(C)CC[C@H](F)C[C@@H]12" ; wanted: its MRGPRX4 activation, Average
0.004

# input compound: "[2H]C1([2H])CC[C@@]2(C)[C@@H](C1)[C@@H](CC)[C@@H](O)[C@@H]1[C@@H]2CC[C@]2(C)[C@@H]([C@H](C)CCN=C=S)CC[C@@H]12" ; wanted: its MRGPRX4 activation, Average
0.027

# input compound: "CC[C@H]1[C@@H](O)[C@@H]2[C@H](CC[C@]3(C)[C@@H]([C@H](C)CCNS(=O)(=O)c4cc(F)ccc4F)CC[C@@H]23)[C@@]2(C)CCCC[C@@H]12" ; wanted: its MRGPRX4 activation, Average
0.023

# input compound: "CC[C@H]1[C@@H](O)[C@@H]2[C@H](CC[C@]3(C)[C@@H]([C@H](C)CCNC(=O)C(=O)NS(=O)(=O)c4ccc(C(C)(C)CF)cc4)CC[C@@H]23)[C@@]2(C)CCCC[C@@H]12" ; wanted: its MRGPRX4 activation, Average
0.016

# input compound: "CC[C@H]1[C@@H](O)[C@@H]2[C@H](CC[C@]3(C)[C@@H]([C@H](C)CCNS(=O)(=O)CC(C)C)CC[C@@H]23)[C@@]2(C)CCCC[C@@H]12" ; wanted: its MRGPRX4 activation, Average
0.011

# input compound: "CC[C@H]1[C@@H](O)[C@@H]2[C@H](CC[C@]3(C)[C@@H]([C@H](C)CCNS(=O)(=O)C[C@]45CC[C@H](CC4=O)C5(C)C)CC[C@@H]23)[C@@]2(C)CCCC[C@@H]12" ; wanted: its MRGPRX4 activation, Average
0.008

# input compound: "CC[C@H]1[C@@H](O)[C@@H]2[C@H](CC[C@]3(C)[C@@H]([C@H](C)CNC(=O)NS(=O)(=O)c4ccc(C(C)(C)CF)cc4)CC[C@@H]23)[C@@]2(C)CCCC[C@@H]12" ; wanted: its MRGPRX4 activation, Average
0.016

# input compound: [2H]C1CC[C@@]2(C)[C@@H](C1)[C@@H](CC)[C@@H](O)[C@@H]1[C@@H]2CC[C@]2(C)[C@@H]([C@H](C)CCC(=O)O)CC[C@@H]12 (some centres unmarked) ; wanted: its MRGPRX4 activation, Average
−0.009

# input compound: "CC[C@H]1[C@@H](O)[C@@H]2[C@H](CC[C@]3(C)[C@@H]([C@H](C)CCNC(=O)C(=O)NS(=O)(=O)c4cc(F)ccc4F)CC[C@@H]23)[C@@]2(C)CCCC[C@@H]12" ; wanted: its MRGPRX4 activation, Average
0.016
